# credit: patent US10689377B2

Measured half-life at 5 µM of individual entries
- ASSAY: In vitro stability in human whole blood
- Format: in vitro ADME
- TEST_CONDITIONS: male, whole blood diluted to 50% with PBS, pH 7.4, human whole blood diluted to 50% with PBS, 5 μM, 37° C., 240-minute incubation, read-out: Compound Half-life

Before answering, review these 5 worked examples.
{"MOLECULE": "CN1CCC[C@H]1COc1nc2c(c(N3CCN(C(=O)/C=C/CF)[C@@H](CC#N)C3)n1)CCN(c1cccc3cccc(Cl)c13)C2 [Example 479]", "half-life at 5 µM": "> 33.3 h"}
{"MOLECULE": "C=C(F)C(=O)N1CCN(c2nc(OC[C@H]3CCCN3C)nc3c2CCN(c2cccc4cccc(Cl)c24)C3)C[C@@H]1CC#N [Example 557]", "half-life at 5 µM": "> 33.3 h"}
{"MOLECULE": "Cc1cccc2cccc(N3CCc4c(nc(OC[C@H]5CCCN5C)nc4N4CCN(C(=O)/C=C/CO)[C@@H](CC#N)C4)C3)c12 [Example 517]", "half-life at 5 µM": "16.7 to 33.3 h"}
{"MOLECULE": "Cc1cccc2cccc(N3CCc4c(nc(OC[C@@H]5CCCN5C)nc4N4CCN(C(=O)/C=C/C(F)F)[C@@H](CC#N)C4)C3)c12 [Example 495]", "half-life at 5 µM": "3.33 to 16.7 h"}
{"MOLECULE": "Cc1cccc2cccc(N3CCc4c(nc(OC[C@H]5CCCN5C)nc4N4CCN(C(=O)/C=C/CF)[C@@H](CC#N)C4)C3)c12 [Example 579]", "half-life at 5 µM": "16.7 to 33.3 h"}

Q: So what's the measured half-life at 5 µM for this one? C=C(F)C(=O)N1CCN(c2nc(OC[C@@H]3CCCN3C)nc3c2CCN(c2cccc4cccc(C)c24)C3)C[C@@H]1CC#N [Example 507]
Ans: > 33.3 h
